# testSummary: Cyclic voltammetry
# Type: physicochemical
# conditionDetails: CH2Cl2, NBu4PF6, Pt, 100 mV.s^−1
For each record, write down the corresponding E1/2 −1/0, second value of cell (cathodic peak).

Use the examples below as a reference point.
[
  {
    "compound": "CCCn1c2c(sc1=S)[S][Au-]1([S]c3sc(=S)n(CCC)c3[S]1)[S]2 [[AuSPr(=S)]^−1]",
    "endpointValue": "0.53 V vs. SCE"
  },
  {
    "compound": "CCN1C(=C(C#N)C#N)SC2=C1[S][Au-]1([S]2)[S]C2=C([S]1)N(CC)C(=C(C#N)C#N)S2 [[AuSEt(=C(CN)2)]^−1]",
    "endpointValue": "0.66 V vs. SCE"
  },
  {
    "compound": "CCn1c2c(sc1=O)[S][Au-]1([S]c3sc(=O)n(CC)c3[S]1)[S]2 [[AuSEt(=O)]^−1]",
    "endpointValue": "0.36 V vs. SCE"
  },
  {
    "compound": "CCn1c2c(sc1=S)[S][Au-]1([S]c3sc(=S)n(CC)c3[S]1)[S]2 [[AuSEt(=S)]^−1]",
    "endpointValue": "0.49 V vs. SCE"
  },
  {
    "compound": "CCCCn1c2c(sc1=S)[S][Au-]1([S]c3sc(=S)n(CCCC)c3[S]1)[S]2 [[AuSBu(=S)]^−1]",
    "endpointValue": "0.50 V vs. SCE"
  }
]

Here is another compound to look at.
[in] Please report the measured E1/2 −1/0, second value of cell (cathodic peak) for CC(C)n1c2c(sc1=S)[Se][Au-]1([Se]c3sc(=S)n(C(C)C)c3[Se]1)[Se]2 [[AuSeiPr(=S)]^−1]
[out] 0.57 V vs. SCE
